Target: MAPK14 (human)
Experiment: Enzyme Assay
measured-property: pIC50
The value called pIC50 is obtained by taking minus log10 of the concentration in mol/L.

Fetch value of pIC50 on MAPK14 (human) for Cc1ccc(-c2ccnc(C(C)(C)O)n2)cc1-n1c(C)nc(OCc2ncc(F)cc2F)c(Cl)c1=O . 6.25

###

Reported IC50 for target or system EGFR (UniProt P00533), by entry.
Respond with the bare value in nM.

Fetch value of IC50 on EGFR (UniProt P00533) for Cc1cc(C)c(N(C)C)c(C)c1Cc1nc(-c2ccncc2)c(-c2ccc(Cl)cc2)[nH]1 . 50

Fetch value of IC50 on EGFR (UniProt P00533) for Cc1cc(C)c(N2CCN(C)CC2)c(C)c1-c1nc(-c2ccncc2)c(-c2ccc(Cl)cc2)[nH]1 . 50
